# credit: ChEMBL document CHEMBL1201862

- Tested on: 786-0
- methodDescription: NCI tumour cell line growth inhibition, 48 h
Calls of active or inactive are those of the source. Cut-off read from the data, not from the text of the source: active = GI50 up to about 1.1 µM and inactive = higher.
Use one of these outcomes when replying: active, inactive

- molecule: "C[C@]12CC/C(=N\\O)C=C1CC[C@@H]1[C@@H]2CC[C@]2(C)C(=N/O)/C(=C/c3ccc([N+](=O)[O-])cc3)C[C@@H]12"
  assignedLabel: "inactive"
- molecule: "O=C(NNS(=O)(=O)c1ccccc1)c1cccnc1"
  assignedLabel: "inactive"
- molecule: "C[n+]1c(-c2ccc(/C=N/Nc3ccnc(N/N=C/c4ccc(-c5cn6ccccc6[n+]5C)cc4)n3)cc2)cn2ccccc21"
  assignedLabel: "inactive"
- molecule: "Cc1ccc2nc3ccccc3c(C3C4C(=O)N(c5ccc(F)cc5)C(=O)C4ON3C(C(N)=O)c3ccccc3)c2c1 (stereo unspecified)"
  assignedLabel: "inactive"
- molecule: "O=C(CC(C(=O)c1cccs1)c1ccc2c(c1)OCO2)c1ccccc1 (stereo unspecified)"
  assignedLabel: "inactive"

Turning to the following molecule.
Dear colleague, could you share the recorded outcome for CCN(CC)c1ccc(/C=C2/C[N+](C)(C)C/C(=C/c3ccc(N(CC)CC)cc3)C2=O)cc1 when you have a moment?
inactive
